# assayed.target: mTOR/GbL/Raptor (mTORC1) (Homo sapiens, UniProt P42345)
# procedure.details: mTOR/GbL/Raptor (mTORC1) ELISA assay
# condition.label: phosphorylation of 4E-BP1; 0.2 nM mTORC1, 10 μM ATP; read-out: IC50 in this assay (mTORC1 ELISA)
attribute.measured: IC50

Query: Which IC50 is listed for CNS(=O)(=O)c1cc(-c2ccc3c(c2)CN(c2ncnc4c2CC(C)(C)CC4)CCO3)cnc1N ?
Response: ≤ 10 nM

Query: Which IC50 is listed for Cc1nc2cc(-c3ccc4c(c3)CN(c3nc(CN(C)C)nc(C)c3C(C)C)CCO4)cnc2[nH]1 ?
Response: 10 to 50 nM

Query: Which IC50 is listed for CC1=Cc2ncnc(N3CCOc4ccc(-c5cnc(N)c(S(=O)(=O)NCC(C)(C)N)c5)cc4C3)c2CC1(C)C ?
Response: ≤ 10 nM

Query: Which IC50 is listed for CC1(C)CCc2ncnc(N3CCOc4ccc(-c5cnc(N)c(S(=O)(=O)N6CC7(CNC7)C6)c5)cc4C3)c2C1 ?
Response: 10 to 50 nM

Query: Which IC50 is listed for COc1ccc2c(N3CCOc4ccc(-c5cnc(N)s5)cc4C3)nc(C)nc2c1 ?
Response: 50 to 250 nM

Query: Which IC50 is listed for CCc1c(C)nc(C)nc1N1CCOc2ccc(-c3cnc4nc(C)[nH]c4c3)cc2C1 ?
Response: 50 to 250 nM

Query: Which IC50 is listed for COCCOCc1nc2c(c(N3CCOc4ccc(-c5ccc6nc(C)[nH]c6c5)cc4C3)n1)CC(C)(C)CC2 ?
Response: 10 to 50 nM

----------
# assayed.target: mTOR/GbL/Raptor (mTORC1) (Homo sapiens, UniProt P42345)
# procedure.details: mTOR/GbL/Raptor (mTORC1) ELISA assay
# condition.label: phosphorylation of 4E-BP1; 0.2 nM mTORC1, 10 μM ATP; read-out: IC50 in this assay (mTORC1 ELISA)
pIC50: −log10 of the molar value.
attribute.measured: pIC50

Query: Which pIC50 is listed for COc1ccc2c(N3CCOc4ccc(-c5cnc6[nH]c(C)nc6c5)cc4C3)nc(C)nc2c1 ?
Response: 6.60 to 7.30

Query: Which pIC50 is listed for CCC1CCc2nc(C)nc(N3CCOc4ccc(-c5cnc6nc(C)[nH]c6c5)cc4C3)c2C1 (centres unmarked) ?
Response: 7.30 to 8.00

Query: Which pIC50 is listed for COc1ccc2c(N3CCOc4ccc(-c5ccc(NC(C)=O)cc5)cc4C3)nc(C)nc2c1 ?
Response: ≤ 5.70

Query: Which pIC50 is listed for COc1ccc2c(N3CCOc4ccc(-c5cnc6nc(N)[nH]c6c5)cc4C3)nc(C)nc2c1 ?
Response: 7.30 to 8.00

Query: Which pIC50 is listed for [H]/N=c1\ncc(-c2ccc3c(c2)CN(c2ncnc4c2CC(C)(C)CC4)CCO3)cn1O ?
Response: 5.70 to 6.00

Query: Which pIC50 is listed for CC1(C)CCc2ncnc(N3CCOc4ccc(-c5cnc(N)c(S(=O)(=O)N6CC[C@H](N)C6)c5)cc4C3)c2C1 ?
Response: ≥ 8.00

Query: Which pIC50 is listed for Cc1nc(CN(C)C)nc(N2CCOc3ccc(-c4cnc5sc(N)nc5c4)cc3C2)c1Br ?
Response: 6.00 to 6.60

Query: Which pIC50 is listed for CSc1nc2c(c(N3CCOc4ccc(-c5ccc6nc(C)[nH]c6c5)cc4C3)n1)CCC2 ?
Response: 6.60 to 7.30
